# TEST_SUMMARY: Solubility in water and aqueous phosphate buffer pH 7
# Type: physicochemical
# COND: water
READOUT_KIND: solubility (mg/mL)
Give bare numbers, in mg/mL.

Reported solubility ( Cc1cc(NC(=O)NCCN2CCC(O)(Cc3ccccc3)CC2)c2ccccc2n1.O=C(O)CC(O)(CC(=O)O)C(=O)O [Example 6] ) = 17.8
